Here, molecules appear alongside Ki reported for Melanocortin receptor 4 (Homo sapiens, UniProt P32245) in the literature.
quantity-measured: Ki (nM)

molecule: CC1CN(C(=NC2CCCCC2)Nc2ccc(C(=O)NCCc3ccc(Cl)cc3Cl)cc2)CC(C)N1 (centres undefined)
experimental-result: 590

molecule: O=C(N[C@H](Cc1ccc(Cl)cc1)C(=O)N1CCN(c2ccccc2CNC2CCCC2)CC1)[C@H]1Cc2ccccc2CN1
experimental-result: 66

molecule: CC(C)C[C@H](N)c1cc(C(F)(F)F)ccc1N1CCN(C(=O)CCc2cccc(C(F)(F)F)c2)CC1
experimental-result: 2200

molecule: O=C(Cc1ccccc1)NCC1(N2CCN(C(=O)[C@@H](Cc3ccc(Cl)cc3)NC(=O)[C@@H]3Cc4ccccc4CN3)CC2)CCCCC1
experimental-result: 11
